B1: Probable E3 ubiquitin-protein ligase MID2, residues 191 to 235; numbered along this chain, Q9UJV3 (parent)
chain: RGITCLDHENEKVNMYCVSDDQLICALCKLVGRHRDHQVASLNDR

# Variants of: B1
# test-protocol: abundance fitness (aPCA) (normalised: wild type 0, dead -1); higher = more abundant; growth selection in yeast, the domain comes from the species named
# test-parameters: Homo sapiens
Classify as follows. Reported abundance fitness greater than or equal to -0.1: condition met. Reported abundance fitness below: condition not met.

Reference set (5 entries):
L30P ... condition not met
H8T ... condition not met
V31S ... condition met
L42E ... condition met
R33T ... condition met

Does Y16W have a reported abundance fitness of at least -0.1?
condition met

Can D44A be said to have abundance fitness at or above -0.1?
condition not met

Would you say G2I shows abundance fitness at minimum -0.1?
condition not met

Please check the record T4Y and state if its abundance fitness is at or above -0.1.
condition met

Threshold query (abundance fitness >= -0.1) on I3G
condition met

Check this variant for abundance fitness at or above -0.1: A40W
condition not met

# check: abundance fitness of V39K is greater than or equal to -0.1
condition not met

hey, is abundance fitness for this one >= -0.1? R1T
condition not met

Record H8D ; criterion: abundance fitness no lower than -0.1. Met?
condition not met

Would you say E11M shows abundance fitness at minimum -0.1?
condition not met

Reported abundance fitness reaches at least -0.1 for L30D ?
condition met

// inclusive: abundance fitness at least -0.1? input: K12I
condition not met

Confirm if abundance fitness reported for the variant C5G is -0.1 or above.
condition not met

Hello, I need to know if H34Y has measured abundance fitness not below -0.1. Thanks!
condition not met

# bool: abundance fitness of R35E >= -0.1
condition met

Determine whether measured abundance fitness meets or exceeds -0.1 for I3N
condition met

Identify whether the reported abundance fitness of the following variant is -0.1 or greater: G32V
condition not met
